test system: RPMI-8402 (T-Lymphoblastic Leukemia); test: Bliss excess, mean over the matrix (fraction); higher = more synergy;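 note: after 72 h of two-drug dosing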
# binarize Bliss excess: threshold 0.001 inclusive, high side rule met, low side rule not met

compound: C[C@@H]1COCCN1c1cc(C2([S@](C)(=N)=O)CC2)nc(-c2ccnc3[nH]ccc23)n1 [AZD6738] + O=C(c1cc(Cc2n[nH]c(=O)c3ccccc23)ccc1F)N1CCN(C(=O)C2CC2)CC1 [Olaparib] (first compound max 10 µM, 7x7, partner max 10 µM)
category: rule met
//
compound: COc1nnc2ccc(N3CCC(c4ccc(OCCN5CCN(C)C(=O)[C@H]5C)cc4)CC3)nn12 [AZD5153] + Cn1cnc2c(F)c(Nc3ccc(Br)cc3Cl)c(C(=O)NOCCO)cc21 [Selumetinib] (first compound max 1 µM, 7x7, partner max 10 µM)
category: rule not met
//
compound: N#Cc1cnc(Nc2cc(NC[C@H]3CNCCO3)c(C(F)(F)F)cn2)cn1 [SRA737] + C=CCn1c(=O)c2cnc(Nc3ccc(N4CCN(C)CC4)cc3)nc2n1-c1cccc(C(C)(C)O)n1 [AZD1775] (first compound max 10 µM, partner max 1 µM)
category: rule met
//
compound: CS(=O)(=O)CCNCc1ccc(-c2ccc3ncnc(Nc4ccc(OCc5cccc(F)c5)c(Cl)c4)c3c2)o1 [Lapatinib] + C[C@@H](Oc1cc(-c2cnn(C3CCNCC3)c2)cnc1N)c1c(Cl)ccc(F)c1Cl [Crizotinib] (first compound max 10 µM, 7x7, partner max 10 µM)
category: rule not met
//
compound: O=C(c1cc(Cc2n[nH]c(=O)c3ccccc23)ccc1F)N1CCN(C(=O)C2CC2)CC1 [Olaparib] + CC1(C)CCC(CN2CCN(c3ccc(C(=O)NS(=O)(=O)c4ccc(NCC5CCOCC5)c([N+](=O)[O-])c4)c(Oc4cnc5[nH]ccc5c4)c3)CC2)=C(c2ccc(Cl)cc2)C1 [Venetoclax] (first compound max 10 µM, 7x7, partner max 1 µM)
category: rule not met
//
compound: NC1(C(=O)N[C@@H](CCO)c2ccc(Cl)cc2)CCN(c2ncnc3[nH]ccc23)CC1 [Capivasertib] + Cn1cnc2c(F)c(Nc3ccc(Br)cc3Cl)c(C(=O)NOCCO)cc21 [Selumetinib] (first compound max 10 µM, 7x7, partner max 10 µM)
category: rule not met
//
compound: C=CCn1c(=O)c2cnc(Nc3ccc(N4CCN(C)CC4)cc3)nc2n1-c1cccc(C(C)(C)O)n1 [AZD1775] + CCc1c2c(nc3ccc(O)cc13)-c1cc3c(c(=O)n1C2)COC(=O)[C@]3(O)CC [SN-38] (first compound max 1 µM, partner max 0.3 µM)
category: rule met
//
compound: COc1cc2c(cc1OCCCCCOc1cc3c(cc1OC)C(=O)N1C=C(C)C[C@H]1C=N3)N=C[C@@H]1CC(C)=CN1C2=O [SG3199] + O=C(c1cc(Cc2n[nH]c(=O)c3ccccc23)ccc1F)N1CCN(C(=O)C2CC2)CC1 [Olaparib] (first compound max 0.001 µM, 7x7, partner max 10 µM)
category: rule not met
//
compound: C=CCn1c(=O)c2cnc(Nc3ccc(N4CCN(C)CC4)cc3)nc2n1-c1cccc(C(C)(C)O)n1 [AZD1775] + Nc1ccn([C@@H]2O[C@H](CO)[C@@H](O)C2(F)F)c(=O)n1 [Gemcitabine] (first compound max 1 µM, partner max 0.3 µM)
category: rule met
//
compound: C[C@@H](c1ccc2nccn2c1)n1nnc2ncc(-c3cnn(C)c3)nc21 [Savolitinib] + CC1(C)CCC(CN2CCN(c3ccc(C(=O)NS(=O)(=O)c4ccc(NCC5CCOCC5)c([N+](=O)[O-])c4)c(Oc4cnc5[nH]ccc5c4)c3)CC2)=C(c2ccc(Cl)cc2)C1 [Venetoclax] (first compound max 1 µM, 7x7, partner max 1 µM)
category: rule not met
//
compound: CC1(C)CCC(CN2CCN(c3ccc(C(=O)NS(=O)(=O)c4ccc(NCC5CCOCC5)c([N+](=O)[O-])c4)c(Oc4cnc5[nH]ccc5c4)c3)CC2)=C(c2ccc(Cl)cc2)C1 [Venetoclax] + CS(=O)(=O)CCNCc1ccc(-c2ccc3ncnc(Nc4ccc(OCc5cccc(F)c5)c(Cl)c4)c3c2)o1 [Lapatinib] (first compound max 1 µM, 7x7, partner max 10 µM)
category: rule not met
//
compound: NC1(C(=O)N[C@@H](CCO)c2ccc(Cl)cc2)CCN(c2ncnc3[nH]ccc23)CC1 [Capivasertib] + CC(C)n1c(=O)n(C)c2cnc3cc(F)c(-c4ccc(OCCCN5CCCCC5)nc4)cc3c21 [AZD1390] (first compound max 10 µM, 7x7, partner max 0.3 µM)
category: rule not met
//
compound: Cc1c2c(nn1C)CSCc1cc(n(C)n1)CSc1cc(c3ccccc3c1)OCCCc1c(C(=O)O)n(C)c3c-2c(Cl)ccc13 [AZD5991] + C1CN(CCC1(C(=O)N[C@@H](CCO)C2=CC=C(C=C2)Cl)N)C3=NC=NC4=C3C=CN4 [Capivasertib] (first compound max 1 µM, 7x7, partner max 3 µM)
category: rule met
